Target: Tyrosine-protein kinase BTK (Homo sapiens, UniProt Q06187)
Sequence (Q06187 whole entry, the tested form may be a part): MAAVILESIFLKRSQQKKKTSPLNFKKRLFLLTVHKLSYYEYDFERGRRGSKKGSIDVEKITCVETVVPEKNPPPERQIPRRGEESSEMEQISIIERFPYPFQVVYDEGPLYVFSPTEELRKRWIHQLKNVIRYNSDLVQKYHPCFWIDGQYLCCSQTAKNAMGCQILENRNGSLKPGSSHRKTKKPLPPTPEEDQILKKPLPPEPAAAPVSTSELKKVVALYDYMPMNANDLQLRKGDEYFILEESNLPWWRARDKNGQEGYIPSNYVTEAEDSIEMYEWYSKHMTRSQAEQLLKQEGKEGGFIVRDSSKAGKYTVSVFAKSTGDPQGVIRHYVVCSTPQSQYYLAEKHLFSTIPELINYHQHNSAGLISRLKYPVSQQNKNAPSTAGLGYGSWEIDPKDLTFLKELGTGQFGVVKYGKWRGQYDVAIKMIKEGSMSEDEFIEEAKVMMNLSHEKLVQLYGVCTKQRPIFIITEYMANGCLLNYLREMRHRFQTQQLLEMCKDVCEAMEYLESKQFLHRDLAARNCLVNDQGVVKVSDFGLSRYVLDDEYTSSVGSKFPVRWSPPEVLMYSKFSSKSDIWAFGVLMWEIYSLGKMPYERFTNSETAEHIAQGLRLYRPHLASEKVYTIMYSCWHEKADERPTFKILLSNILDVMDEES
Assay: Inhibition of full-length recombinant human His-tagged BTK cytoplasmic domain expressed in baculovirus by Z'-LYTE assay
MEASURED METRIC: pIC50
# pIC50 is unitless: minus log10 of the molar concentration; print number only

Give the value of pIC50 reported for the following: C=CC(=O)N1CCC[C@@H](n2nc(-c3ccc(OCc4ccccn4)c(Cl)c3)c3c(N)ncnc32)C1 7.61

====

Test: Apparent plasma clearance in Sprague-Dawley rat after 24 hrs at 10 mg/kg, po
Format: ADME, organism-based
MEASURED METRIC: CL/F
Write down the value, and be sure its unit follows.

Give the value of CL/F reported for the following: C=CC(=O)N1CCC[C@@H](n2nc(-c3ccc(OCc4ccccn4)c(Cl)c3)c3c(N)ncnc32)C1 406 mL/min/kg

====

Assay: Half life in Sprague-Dawley rat plasma at 1 mg/kg, iv after 8 hrs
Type: ADME, organism-based
MEASURED METRIC: half-life (min)
Kindly provide the numeric value in min only, without the unit symbol.

Give the value of half-life reported for the following: C=CC(=O)N1CCC[C@@H](n2nc(-c3ccc(OCc4ccccn4)c(Cl)c3)c3c(N)ncnc32)C1 18

====

Assay: Half life in Sprague-Dawley rat plasma at 10 mg/kg, po after 24 hrs
Format: ADME, organism-based
MEASURED METRIC: half-life
Write down the value, and be sure its unit follows.

Give the value of half-life reported for the following: C=CC(=O)N1CCC[C@@H](n2nc(-c3ccc(OCc4ccccn4)c(Cl)c3)c3c(N)ncnc32)C1 1.95 h

====

Target: Cytoplasmic tyrosine-protein kinase BMX (Homo sapiens)
Sequence (P51813 whole entry): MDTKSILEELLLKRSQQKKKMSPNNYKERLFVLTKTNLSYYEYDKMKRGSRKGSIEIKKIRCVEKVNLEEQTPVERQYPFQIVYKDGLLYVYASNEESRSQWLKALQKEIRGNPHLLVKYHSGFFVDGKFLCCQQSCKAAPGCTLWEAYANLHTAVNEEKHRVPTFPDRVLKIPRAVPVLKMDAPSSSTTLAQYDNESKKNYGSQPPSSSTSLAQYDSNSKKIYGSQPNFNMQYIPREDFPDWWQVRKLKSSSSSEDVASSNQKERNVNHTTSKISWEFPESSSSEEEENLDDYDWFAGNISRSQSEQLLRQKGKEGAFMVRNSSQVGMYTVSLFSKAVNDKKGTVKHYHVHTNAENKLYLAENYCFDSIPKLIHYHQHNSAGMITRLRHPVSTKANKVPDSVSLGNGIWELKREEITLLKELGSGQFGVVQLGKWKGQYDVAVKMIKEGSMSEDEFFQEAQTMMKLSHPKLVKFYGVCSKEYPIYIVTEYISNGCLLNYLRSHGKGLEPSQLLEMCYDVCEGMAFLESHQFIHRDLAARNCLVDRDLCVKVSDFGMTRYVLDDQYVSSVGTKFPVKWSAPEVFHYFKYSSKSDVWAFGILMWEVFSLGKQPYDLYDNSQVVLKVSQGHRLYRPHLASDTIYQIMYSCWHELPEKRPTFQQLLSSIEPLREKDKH
Assay: Inhibition of full-length recombinant human His-tagged BMX expressed in baculovirus by Z'-LYTE assay
MEASURED METRIC: pIC50
# pIC50 is unitless: minus log10 of the molar concentration; print number only

Give the value of pIC50 reported for the following: C=CC(=O)N1CCC[C@@H](n2nc(-c3ccc(OCc4ccccn4)c(Cl)c3)c3c(N)ncnc32)C1 6.95

====

Target: Dual specificity mitogen-activated protein kinase kinase 1 (Homo sapiens, UniProt Q02750)
Sequence (Q02750 whole entry): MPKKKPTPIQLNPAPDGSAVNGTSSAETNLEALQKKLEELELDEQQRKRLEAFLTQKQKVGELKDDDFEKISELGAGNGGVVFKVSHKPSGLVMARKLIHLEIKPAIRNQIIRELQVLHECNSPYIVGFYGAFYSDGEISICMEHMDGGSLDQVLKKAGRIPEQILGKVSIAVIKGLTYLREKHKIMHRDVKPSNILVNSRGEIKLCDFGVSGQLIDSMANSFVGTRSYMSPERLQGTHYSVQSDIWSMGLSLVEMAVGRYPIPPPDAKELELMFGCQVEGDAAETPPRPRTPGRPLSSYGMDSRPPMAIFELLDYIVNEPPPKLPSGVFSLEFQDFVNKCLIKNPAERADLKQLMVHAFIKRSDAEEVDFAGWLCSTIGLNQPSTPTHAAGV
Test: Inhibition of full-length recombinant human His-tagged MEK1 expressed in baculovirus by Z'-LYTE assay
MEASURED METRIC: IC50 (µM)
Kindly provide the numeric value in µM only, without the unit symbol.

Give the value of IC50 reported for the following: C=CC(=O)N1CCC[C@@H](n2nc(-c3ccc(OCc4ccccn4)c(Cl)c3)c3c(N)ncnc32)C1 0.161

====

Test: Tmax in Sprague-Dawley rat plasma at 1 mg/kg, iv after 8 hrs
Format: ADME, organism-based
MEASURED METRIC: Tmax (min)
Kindly provide the numeric value in min only, without the unit symbol.

Give the value of Tmax reported for the following: C=CC(=O)N1CCC[C@@H](n2nc(-c3ccc(OCc4ccccn4)c(Cl)c3)c3c(N)ncnc32)C1 1.02

====

Tested on: Epidermal growth factor receptor (Homo sapiens), P00533 [T790M]
Sequence (P00533 whole entry T790M): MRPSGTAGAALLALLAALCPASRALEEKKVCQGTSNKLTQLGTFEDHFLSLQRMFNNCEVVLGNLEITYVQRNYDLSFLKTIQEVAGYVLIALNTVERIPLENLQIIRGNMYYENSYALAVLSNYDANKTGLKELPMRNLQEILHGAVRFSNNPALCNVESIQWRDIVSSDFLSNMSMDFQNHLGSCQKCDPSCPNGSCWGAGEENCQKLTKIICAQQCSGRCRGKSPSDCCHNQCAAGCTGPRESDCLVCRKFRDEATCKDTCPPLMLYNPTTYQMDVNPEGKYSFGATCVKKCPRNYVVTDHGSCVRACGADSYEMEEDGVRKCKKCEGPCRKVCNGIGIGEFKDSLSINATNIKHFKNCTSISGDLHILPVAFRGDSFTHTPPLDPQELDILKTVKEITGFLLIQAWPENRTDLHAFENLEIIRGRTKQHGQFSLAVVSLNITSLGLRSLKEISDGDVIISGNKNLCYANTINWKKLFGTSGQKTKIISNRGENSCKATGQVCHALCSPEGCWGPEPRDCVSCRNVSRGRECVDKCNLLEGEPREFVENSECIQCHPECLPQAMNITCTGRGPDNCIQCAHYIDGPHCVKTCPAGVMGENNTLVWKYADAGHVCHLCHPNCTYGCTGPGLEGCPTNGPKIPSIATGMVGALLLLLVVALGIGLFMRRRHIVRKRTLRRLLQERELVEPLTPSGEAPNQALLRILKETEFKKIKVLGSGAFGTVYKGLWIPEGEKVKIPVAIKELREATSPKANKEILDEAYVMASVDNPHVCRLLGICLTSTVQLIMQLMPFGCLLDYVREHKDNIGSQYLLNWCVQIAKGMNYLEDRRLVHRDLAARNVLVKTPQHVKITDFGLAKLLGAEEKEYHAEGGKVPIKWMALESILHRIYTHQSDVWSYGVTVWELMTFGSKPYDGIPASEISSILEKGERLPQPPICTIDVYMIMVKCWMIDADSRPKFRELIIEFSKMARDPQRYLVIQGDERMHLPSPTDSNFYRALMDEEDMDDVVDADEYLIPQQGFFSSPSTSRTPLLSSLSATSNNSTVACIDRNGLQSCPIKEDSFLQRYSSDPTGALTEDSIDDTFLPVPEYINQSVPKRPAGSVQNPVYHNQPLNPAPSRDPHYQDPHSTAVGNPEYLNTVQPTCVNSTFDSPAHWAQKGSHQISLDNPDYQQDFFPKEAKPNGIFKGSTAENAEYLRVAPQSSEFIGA
We label by threshold. Values of GI50 strictly beneath 70 nM are MET. Values of 70 nM and up are NOT MET.

Example entries begin here.
RECORD SMILES: C=CC(=O)N1CCC[C@@H](n2nc(-c3ccc(OCc4ccc(F)c(F)c4)c(Cl)c3)c3c(N)ncnc32)C1
QUALITATIVE LABEL: MET

RECORD SMILES: C=CC(=O)N1CCC[C@@H](n2nc(-c3ccc(OCc4ccccc4)cc3)c3c(N)ncnc32)C1
QUALITATIVE LABEL: MET

RECORD SMILES: C=CC(=O)Nc1cccc(-n2nc(-c3ccc(OCc4cccc(F)c4)c(Cl)c3)c3c(N)ncnc32)c1
QUALITATIVE LABEL: NOT MET

RECORD SMILES: C=CC(=O)N1CCC[C@@H](n2nc(-c3ccc(OCc4nn(C)c5ccccc45)c(Cl)c3)c3c(N)ncnc32)C1
QUALITATIVE LABEL: NOT MET

RECORD SMILES: C=CC(=O)N1CCC[C@@H](n2nc(-c3ccc(OCc4ccccc4)c(Cl)c3)c3c(N)ncnc32)C1
QUALITATIVE LABEL: MET

Check if GI50 falls below 70 nM for C=CC(=O)N1CCC[C@@H](n2nc(-c3ccc(OCc4ccc(F)cc4)c(Cl)c3)c3c(N)ncnc32)C1 . MET

Check if GI50 falls below 70 nM for C=CC(=O)N1CCC[C@@H](n2nc(-c3ccc(OCc4cccc(S(C)(=O)=O)c4)c(Cl)c3)c3c(N)ncnc32)C1 . NOT MET

Check if GI50 falls below 70 nM for C=CC(=O)N1CCC[C@@H](n2nc(-c3ccc(OCc4cccc(F)c4)cc3Cl)c3c(N)ncnc32)C1 . NOT MET

Check if GI50 falls below 70 nM for C=CC(=O)N1CC[C@@H](n2nc(-c3ccc(Oc4ccccc4)cc3)c3c(N)ncnc32)C1 . MET

Check if GI50 falls below 70 nM for C=CC(=O)N1CCC[C@@H](n2nc(-c3ccc(OCc4ccccn4)c(F)c3)c3c(N)ncnc32)C1 . MET
